System: neutral/alkaline ceramidase derived from a mouse liver (Mus musculus)
Construct: the ceramidase purified from the mouse liver lacked the peptide of the N-terminal portion of the polypeptides encoded by the above-mentioned ORF; from tissue; host or cells: mouse liver (membrane fraction, purified by chromatography)
Protocol Notes: Substrate specificity of the ceramidase (degradation of 14C-labeled sphingolipids, TLC)
Assay type: biochemical
Details: 5 milliunits ceramidase on 100 pmol 14C-labeled sphingolipid, 25 mM Tris-HCl pH 7.5, 1% sodium cholate, 37° C., 24 hours
Experimental: Five milliunits of the ceramidase of the present invention is acted on 100 pmol of various kinds of sphingolipids, in which the fatty acid moiety is labeled with ^14C-radioactive isotope, in […] of 25 mM Tris-hydrochloric acid buffer, pH 7.5, containing 1% sodium cholate at 37° C. for 24 hours. […] Thereafter, the ^14C-labeled sphingolipids and the ^14C-labeled fatty acids generated by the enzymatic reaction are detected and quantified by Imaging Analyzer BAS1000 (manufactured by Fuji Photo Film). […]
Property Name: Degradation Ratio (%)

Worked set:
- Structure As Smiles: "CCCCCCCCCCCCC/C=C/[C@@H](O)[C@H](CO)NC(=O)CCCCCCCCCCC"
  Degradation Ratio (%): 63
- Structure As Smiles: "CCCCCCCCCCCCCCCC(=O)N[C@@H](CO)[C@H](O)[C@H](O)CCCCCCCCCCCCCC"
  Degradation Ratio (%): 5

A: CCCCCCCCCCCCC/C=C/[C@@H](O)[C@H](CO)NC(=O)CCCCCCCCCCCCCCC
B: CCCCCCCCCCCCCCCCCC(=O)N[C@@H](CO)[C@H](O)CCCCCCCCCCCCCCC
Input: // compare measured Degradation Ratio (%) between A and B ; output the lower one Please identify the chosen entry by its label.
Output: B
(B: 40%, A: 93%)

* * *

System: neutral/alkaline ceramidase derived from a mouse liver (Mus musculus, UniProt Q9JHE3)
Construct: the ceramidase purified from the mouse liver lacked the peptide of the N-terminal portion of the polypeptides encoded by the above-mentioned ORF; from tissue; host or cells: mouse liver (membrane fraction, purified by chromatography)
Sequence (Q9JHE3 75-756): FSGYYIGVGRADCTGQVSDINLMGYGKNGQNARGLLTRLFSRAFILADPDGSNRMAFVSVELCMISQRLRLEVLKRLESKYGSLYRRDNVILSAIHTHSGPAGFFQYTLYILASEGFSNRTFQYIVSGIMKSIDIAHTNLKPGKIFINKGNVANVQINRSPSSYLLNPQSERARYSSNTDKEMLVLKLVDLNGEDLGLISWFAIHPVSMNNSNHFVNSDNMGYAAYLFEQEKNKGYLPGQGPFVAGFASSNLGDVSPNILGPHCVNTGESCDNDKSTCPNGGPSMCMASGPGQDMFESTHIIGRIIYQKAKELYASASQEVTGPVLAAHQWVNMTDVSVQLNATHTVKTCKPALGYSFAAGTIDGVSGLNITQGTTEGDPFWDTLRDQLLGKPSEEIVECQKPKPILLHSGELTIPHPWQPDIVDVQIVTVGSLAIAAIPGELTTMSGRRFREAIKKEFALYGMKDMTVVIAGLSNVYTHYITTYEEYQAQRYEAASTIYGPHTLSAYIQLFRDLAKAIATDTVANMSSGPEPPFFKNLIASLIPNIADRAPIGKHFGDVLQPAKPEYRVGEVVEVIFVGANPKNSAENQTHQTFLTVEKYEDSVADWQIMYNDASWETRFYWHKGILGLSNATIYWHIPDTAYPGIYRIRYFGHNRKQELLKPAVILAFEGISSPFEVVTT
Protocol Notes: Substrate specificity of the ceramidase (degradation of 14C-labeled sphingolipids, TLC)
Type: biochemical
Details: 5 milliunits ceramidase on 100 pmol 14C-labeled sphingolipid, 25 mM Tris-HCl pH 7.5, 1% sodium cholate, 37° C., 24 hours
Property Name: Degradation Ratio (%)

Worked set:
- Structure As Smiles: "CCCCCCCCCCCCCCCCCC(=O)N[C@@H](CO)[C@H](O)[C@H](O)CCCCCCCCCCCCCC"
  Units Symbol: "%"
  Meas Value: 2
- Structure As Smiles: "CCCCCCCCCCCCC/C=C/[C@@H](O)[C@H](CO)NC(=O)CCCCCCCCCCCNc1ccc([N+](=O)[O-])c2nonc12"
  Units Symbol: "%"
  Meas Value: 97
- Structure As Smiles: "CCCCCCCCCCCCCCCC(=O)N[C@@H](CO)[C@H](O)CCCCCCCCCCCCCCC"
  Units Symbol: "%"
  Meas Value: 59

A: CCCCCCCCCCCCC/C=C/[C@@H](O)[C@H](CO)NC(=O)CCCCCNc1ccc([N+](=O)[O-])c2nonc12
B: CCCCCCCCCCCCC/C=C/[C@@H](O)[C@H](CO)NC(=O)CCCCCCCCCCCCCCCCC
Input: Endpoint returns whichever of A and B has the numerically higher Degradation Ratio (%). Please identify the chosen entry by its label.
Output: B
(B: 83%, A: 2%)
